biological target: Voltage-dependent T-type calcium channel subunit alpha-1G (Homo sapiens); experiment: Inhibition of T-type CaV3.1 channel expressed in HEK293 cells assessed as inhibition of calcium current at 10 uM by fluorescence based HTS FDSS6000 assay; assay type: cell-based
Sequence (O43497 whole entry): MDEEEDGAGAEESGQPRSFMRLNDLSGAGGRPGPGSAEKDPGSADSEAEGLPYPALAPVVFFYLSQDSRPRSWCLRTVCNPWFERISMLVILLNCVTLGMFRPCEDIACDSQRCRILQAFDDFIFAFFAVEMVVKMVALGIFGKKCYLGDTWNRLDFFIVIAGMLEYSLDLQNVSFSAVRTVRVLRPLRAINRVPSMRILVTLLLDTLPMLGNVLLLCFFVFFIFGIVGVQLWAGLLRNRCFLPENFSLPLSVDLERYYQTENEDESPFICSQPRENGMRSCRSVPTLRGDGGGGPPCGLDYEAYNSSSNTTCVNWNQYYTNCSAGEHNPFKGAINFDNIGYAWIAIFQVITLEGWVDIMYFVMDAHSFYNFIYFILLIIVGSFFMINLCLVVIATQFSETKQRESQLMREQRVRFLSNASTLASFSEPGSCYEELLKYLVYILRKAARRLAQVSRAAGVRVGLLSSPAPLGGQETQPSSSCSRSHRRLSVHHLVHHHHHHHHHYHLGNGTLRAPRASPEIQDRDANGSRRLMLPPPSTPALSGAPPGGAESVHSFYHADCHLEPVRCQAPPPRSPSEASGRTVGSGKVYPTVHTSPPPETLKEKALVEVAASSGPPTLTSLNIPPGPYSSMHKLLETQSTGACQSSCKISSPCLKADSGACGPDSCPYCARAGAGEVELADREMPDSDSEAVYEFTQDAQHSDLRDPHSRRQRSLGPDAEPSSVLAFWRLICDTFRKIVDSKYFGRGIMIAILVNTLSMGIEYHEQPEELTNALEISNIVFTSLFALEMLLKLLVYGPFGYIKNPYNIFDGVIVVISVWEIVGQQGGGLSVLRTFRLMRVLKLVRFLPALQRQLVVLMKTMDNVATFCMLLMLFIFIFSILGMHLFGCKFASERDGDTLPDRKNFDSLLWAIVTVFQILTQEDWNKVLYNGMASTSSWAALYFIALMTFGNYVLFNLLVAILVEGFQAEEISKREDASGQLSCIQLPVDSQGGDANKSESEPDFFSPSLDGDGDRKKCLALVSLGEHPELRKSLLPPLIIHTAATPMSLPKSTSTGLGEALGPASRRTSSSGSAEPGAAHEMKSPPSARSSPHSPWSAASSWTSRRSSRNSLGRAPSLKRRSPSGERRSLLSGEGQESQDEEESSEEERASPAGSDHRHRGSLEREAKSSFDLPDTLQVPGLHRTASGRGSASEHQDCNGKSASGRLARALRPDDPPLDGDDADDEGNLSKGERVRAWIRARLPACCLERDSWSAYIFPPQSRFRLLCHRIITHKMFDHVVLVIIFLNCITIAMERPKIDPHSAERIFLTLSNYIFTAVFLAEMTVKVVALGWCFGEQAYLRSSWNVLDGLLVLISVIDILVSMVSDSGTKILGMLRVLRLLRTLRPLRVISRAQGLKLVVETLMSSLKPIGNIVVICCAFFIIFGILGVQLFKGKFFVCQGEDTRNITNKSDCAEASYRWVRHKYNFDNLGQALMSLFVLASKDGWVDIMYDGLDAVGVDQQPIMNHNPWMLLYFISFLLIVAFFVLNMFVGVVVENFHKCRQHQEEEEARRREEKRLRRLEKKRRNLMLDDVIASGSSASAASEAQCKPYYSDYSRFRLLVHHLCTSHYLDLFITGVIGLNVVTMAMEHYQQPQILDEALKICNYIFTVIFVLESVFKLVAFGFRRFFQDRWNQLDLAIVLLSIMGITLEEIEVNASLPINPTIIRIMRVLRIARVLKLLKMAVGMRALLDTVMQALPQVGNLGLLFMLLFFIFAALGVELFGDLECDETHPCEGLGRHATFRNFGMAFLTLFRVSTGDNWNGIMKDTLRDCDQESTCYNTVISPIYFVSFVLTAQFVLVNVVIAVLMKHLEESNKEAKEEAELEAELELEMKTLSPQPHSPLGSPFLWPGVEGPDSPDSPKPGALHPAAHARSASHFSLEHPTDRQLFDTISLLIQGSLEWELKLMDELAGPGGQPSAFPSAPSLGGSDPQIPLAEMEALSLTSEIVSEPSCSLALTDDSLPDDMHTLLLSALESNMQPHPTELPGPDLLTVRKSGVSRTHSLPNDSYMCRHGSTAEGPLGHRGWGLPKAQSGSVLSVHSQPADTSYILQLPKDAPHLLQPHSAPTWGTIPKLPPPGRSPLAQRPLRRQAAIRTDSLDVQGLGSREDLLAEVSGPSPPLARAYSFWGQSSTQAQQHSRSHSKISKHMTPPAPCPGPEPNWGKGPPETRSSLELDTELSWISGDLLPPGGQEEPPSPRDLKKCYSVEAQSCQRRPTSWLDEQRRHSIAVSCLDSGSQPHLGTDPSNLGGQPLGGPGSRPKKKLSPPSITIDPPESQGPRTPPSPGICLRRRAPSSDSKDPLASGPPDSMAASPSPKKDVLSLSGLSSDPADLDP
ENDPOINT_NAME: inhibition (%)

Use these answered entries as a reference point.
query: Using known records, supply inhibition for CCCc1nc(-c2ccccc2)c(CNCCCN2CCN(c3ccc(C)cc3)CC2)o1
result: 53.9

query: Using known records, supply inhibition for CCCc1nc(-c2ccccc2)c(CNCCN2CCN(c3ccccc3F)CC2)o1
result: 46.5

query: Using known records, supply inhibition for CCCc1nc(-c2ccccc2)c(CNCCCN2CCN(c3cccc(F)c3)CC2)o1
result: 68.9

query: Using known records, supply inhibition for CCCc1nc(-c2ccccc2)c(CNCCN2CCN(c3ccc(F)cc3)CC2)o1
result: 54.1

query: Using known records, supply inhibition for CCCc1nc(-c2ccccc2)c(CNCCCN2CCN(c3ccccc3OC)CC2)o1
result: 41

P = CCCc1nc(-c2ccccc2)c(CNCCN2CCN(c3cccc(C)c3C)CC2)o1
Q = CCCc1nc(-c2ccccc2)c(CNCCN2CCN(c3ccccc3OC)CC2)o1
query: Compare P and Q by numeric inhibition and name the larger one. Kindly give the label for the entry you pick.
result: P
